# System: human CTPS1
# ASSAY_DETAILS: RapidFire/MS-based enzyme selectivity assay, human CTPS1
# Assay type: biochemical
# CONDITION_PARAMETERS: calculated from the CTPS1 and CTPS2 IC50 values
ASSAY_ENDPOINT: Selectivity (fold selectivity between CTPS1 and CTPS2)

See these solved cases before continuing.
CCOc1cncc(-c2ccc(NC(=O)C(C)(C)c3cncc(NS(=O)(=O)C4CC4)n3)cc2)n1 | +++ (>60 fold (+++))
CCOc1cncc(-c2ccc(NC(=O)C(CC)c3ccnc(NS(=O)(=O)C4CC4)n3)c(F)c2)n1 (centres unmarked) | + (2-30 fold (+))
CC(C)(C(=O)Nc1ccc(-c2cccnc2)cc1)c1ccnc(NS(=O)(=O)C2CC2)n1 | + (2-30 fold (+))
CC(C)Oc1cncc(-c2ccc(NC(=O)C(C)(C)c3ccnc(NS(=O)(=O)C4CC4)n3)nc2)n1 | +++ (>60 fold (+++))
CCOc1cncc(-c2ccc(NC(=O)C(C)(C)c3ccnc(NS(=O)(=O)C4CC4)n3)cc2)n1 | ++ (>30-60 fold (++))

For the compound shown here, CCOc1cncc(-c2ccc(NC(=O)C(C)(C)c3nc(NS(=O)(=O)C4CC4)ncc3C)cc2)n1 , give the reported Selectivity (fold selectivity between CTPS1 and CTPS2).
+ (2-30 fold (+))

For the compound shown here, CCOc1cncc(-c2ccc(NC(=O)C(F)(CC)c3ccnc(NS(C)(=O)=O)n3)nc2)n1 (centres unmarked) , give the reported Selectivity (fold selectivity between CTPS1 and CTPS2).
+++ (>60 fold (+++))

For the compound shown here, CCOc1cncc(-c2ccc(NC(=O)C(CC)c3cccc(NS(=O)(=O)C4CC4)n3)cc2)n1 (centres unmarked) , give the reported Selectivity (fold selectivity between CTPS1 and CTPS2).
++ (>30-60 fold (++))

---

# TEST_TARGET: human CTPS1 (Homo sapiens)
# Construct: purchased Proteros biostructures GmbH
# Sequence (P17812 whole entry): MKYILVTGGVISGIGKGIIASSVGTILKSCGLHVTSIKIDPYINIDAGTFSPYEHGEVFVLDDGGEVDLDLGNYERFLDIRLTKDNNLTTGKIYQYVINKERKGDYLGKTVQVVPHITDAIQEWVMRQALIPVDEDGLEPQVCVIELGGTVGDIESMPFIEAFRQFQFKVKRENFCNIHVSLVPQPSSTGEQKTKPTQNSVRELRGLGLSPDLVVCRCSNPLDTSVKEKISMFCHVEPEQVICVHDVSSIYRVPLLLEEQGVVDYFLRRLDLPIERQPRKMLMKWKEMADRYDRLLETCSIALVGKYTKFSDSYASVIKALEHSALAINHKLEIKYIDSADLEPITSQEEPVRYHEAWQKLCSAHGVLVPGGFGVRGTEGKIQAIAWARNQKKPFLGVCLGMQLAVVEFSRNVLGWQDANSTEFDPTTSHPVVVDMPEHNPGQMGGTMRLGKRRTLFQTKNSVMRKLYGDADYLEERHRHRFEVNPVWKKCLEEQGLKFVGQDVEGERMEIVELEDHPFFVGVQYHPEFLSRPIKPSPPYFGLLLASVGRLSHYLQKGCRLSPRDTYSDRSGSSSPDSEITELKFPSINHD
# ASSAY_DETAILS: Human CTPS1 enzyme inhibition (ADP-Glo Max assay)
# Assay type: biochemical
# CONDITION_PARAMETERS: human full length CTPS1, 25° C., read-out: CTPS1 (Human CTPS1 Enzyme Inhibition, IC50 grouped by potency range)
pIC50: −log10 of the molar value.
Documented pIC50 across a set of compounds

CCOc1cncc(-c2ccc(NC(=O)C(C)(CCOC)c3cncc(NS(=O)(=O)C4CC4)n3)nc2)n1 (centres unmarked) | ≥ 7.00
CCOc1cncc(-c2ccc(C(=O)NC(CC)c3ccnc(NS(=O)(=O)C4CC4)n3)c(F)c2)n1 (centres unmarked) | ≥ 7.00
CCOc1cncc(-c2ccc(NC(=O)C(CC)c3cccc(NS(=O)(=O)C4CC4)n3)cc2)n1 (centres unmarked) | 6.00 to 7.00
CCC(C(=O)Nc1ccc(-c2cncc(C#N)c2)cc1)c1ccnc(NS(=O)(=O)C2CC2)n1 (centres unmarked) | 6.00 to 7.00
CCC(C(=O)Nc1ccc(-c2cncc(OC(C)C)c2)cc1F)c1ccnc(NS(=O)(=O)C2CC2)n1 (centres unmarked) | 6.00 to 7.00

For the compound shown here, CCC(NC(=O)c1ccc(-c2cncc(C(F)(F)F)n2)cc1)c1ccnc(NS(=O)(=O)C2CC2)n1 (centres unmarked) , give the reported pIC50.
6.00 to 7.00

For the compound shown here, CCC(C(=O)Nc1ccc(-c2cnccn2)cc1F)c1ccnc(NS(=O)(=O)C2CC2)n1 (centres unmarked) , give the reported pIC50.
6.00 to 7.00

For the compound shown here, CCC(C(=O)Nc1ccc(-c2cncc(OC(C)C)n2)cc1F)c1ccnc(NS(=O)(=O)C2CC2)n1 (centres unmarked) , give the reported pIC50.
≥ 7.00

---

# TEST_TARGET: human CTPS1 (Homo sapiens)
# Construct: purchased Proteros biostructures GmbH
# ASSAY_DETAILS: Human CTPS1 enzyme inhibition (ADP-Glo Max assay)
# Format: biochemical
# CONDITION_PARAMETERS: human full length CTPS1, 25° C., read-out: CTPS1 (Human CTPS1 Enzyme Inhibition, IC50 grouped by potency range)
pIC50: −log10 of the molar value.
Documented pIC50 across a set of compounds

See these solved cases before continuing.
CCC(C(=O)Nc1ccc(-c2cncc(OC(C)C)n2)cc1)c1ccnc(NS(=O)(=O)C2CC2)n1 (centres unmarked) | ≥ 7.00
CCC(C(=O)Nc1ccc(-c2cncc(OCC(F)(F)F)c2)cc1)c1ccnc(NS(=O)(=O)C2CC2)n1 (centres unmarked) | 6.00 to 7.00
CCC(C(=O)Nc1ccc(-c2cncc(C(F)(F)F)n2)cn1)c1ccnc(NS(=O)(=O)C2CC2)n1 (centres unmarked) | ≥ 7.00
CCOc1cncc(-c2ccc(NC(=O)C(F)(CC)c3cncc(NS(=O)(=O)C4CC4)n3)nc2)n1 (centres unmarked) [P200] | ≥ 7.00
CCC(NC(=O)c1ccc(-c2cncc(OC(C)C)n2)cc1)c1ccnc(NS(=O)(=O)C2CC2)n1 (centres unmarked) | ≥ 7.00

For the compound shown here, CCC(C(=O)Nc1ccc(-c2cncc(OCC(F)(F)F)c2)cn1)c1ccnc(NS(=O)(=O)C2CC2)n1 (centres unmarked) , give the reported pIC50.
6.00 to 7.00

For the compound shown here, CCOc1cncc(-c2ccc(C(=O)NC(CC)c3cncc(NS(=O)(=O)C4CC4)n3)c(F)c2)n1 (single isomer, unassigned) [P224] , give the reported pIC50.
6.00 to 7.00

For the compound shown here, CCOc1cncc(-c2ccc(NC(=O)C(CC)c3cccc(NS(=O)(=O)C4CC4)n3)nc2)n1 (centres unmarked) , give the reported pIC50.
≥ 7.00

---

# TEST_TARGET: human CTPS1 (Homo sapiens)
# Construct: purchased Proteros biostructures GmbH
# ASSAY_DETAILS: Human CTPS1 enzyme inhibition (ADP-Glo Max assay)
# Type: biochemical
# CONDITION_PARAMETERS: human full length CTPS1, 25° C., read-out: CTPS1 (Human CTPS1 Enzyme Inhibition, IC50 grouped by potency range)
Documented IC50 across a set of compounds

CCOc1cncc(-c2ccc(NC(=O)C(CC)c3cccc(NS(=O)(=O)C4CC4)n3)c(F)c2)n1 (centres unmarked) | 100 to 1000 nM
CCC(C(=O)Nc1ccc(-c2cncc(C(F)(F)F)n2)cc1)c1ccnc(NS(=O)(=O)C2CC2)n1 (centres unmarked) | 100 to 1000 nM
CCOc1cncc(-c2ccc(NC(=O)C(CC)c3nccc(NS(=O)(=O)C4CC4)n3)nc2)n1 (centres unmarked) | ≤ 100 nM
CC(C(=O)Nc1ccc(-c2cccnc2)cc1)c1ccnc(NS(=O)(=O)C2CC2)n1 (centres unmarked) | 100 to 1000 nM
CCOc1cncc(-c2ccc(NC(=O)C(C)(CCOC)c3cncc(NS(C)(=O)=O)n3)nc2)n1 (centres unmarked) | 100 to 1000 nM
CCOc1cncc(-c2ccc(C(=O)NC(CC)c3ccnc(NS(=O)(=O)C4CC4)n3)nc2)n1 (centres unmarked) | 100 to 1000 nM
CCOc1cncc(-c2ccc(NC(=O)C(CC)c3ccnc(NS(=O)(=O)C4CC4)n3)c(F)c2)n1 (centres unmarked) | ≤ 100 nM
CCOc1cncc(-c2ccc(NC(=O)C(CC)c3ccnc(NS(=O)(=O)C4CC4)n3)cc2)n1 (centres unmarked) | ≤ 100 nM
CCC(C(=O)Nc1ccc(-c2cncc(Cl)n2)cc1)c1ccnc(NS(=O)(=O)C2CC2)n1 (centres unmarked) | 100 to 1000 nM
CCC(C(=O)Nc1ccc(-c2cncc(OCC(F)(F)F)n2)cc1)c1ccnc(NS(=O)(=O)C2CC2)n1 (centres unmarked) | ≤ 100 nM

For the compound shown here, CCC(C(=O)Nc1ccc(-c2cncc(Cl)c2)cc1)c1cccc(NS(=O)(=O)C2CC2)n1 (centres unmarked) , give the reported IC50.
1000 to 10000 nM

For the compound shown here, CCC(C(=O)Nc1ccc(-c2cncc(Cl)c2)cc1)c1ccnc(NS(=O)(=O)C2CC2)n1 (centres unmarked) [P1] , give the reported IC50.
100 to 1000 nM

For the compound shown here, CCC(NC(=O)c1ccc(-c2cncc(Cl)c2)cc1F)c1ccnc(NS(=O)(=O)C2CC2)n1 (centres unmarked) , give the reported IC50.
100 to 1000 nM

For the compound shown here, CCOc1cncc(-c2ccc(C(=O)NC(CC)c3ccnc(NS(=O)(=O)C4CC4)n3)cc2)n1 (centres unmarked) , give the reported IC50.
100 to 1000 nM

For the compound shown here, CCC(C(=O)Nc1ccc(-c2cncc(OC)n2)cc1)c1ccnc(NS(=O)(=O)C2CC2)n1 (centres unmarked) , give the reported IC50.
≤ 100 nM

For the compound shown here, CCC(C(=O)Nc1ccc(-c2cncc(C(F)(F)F)c2)cc1)c1ccnc(NS(=O)(=O)C2CC2)n1 (centres unmarked) , give the reported IC50.
100 to 1000 nM

For the compound shown here, CCOc1cncc(-c2ccc(NC(=O)C(F)(CC)c3ccnc(NS(=O)(=O)C4CC4)n3)nc2)n1 (racemic) [P112] , give the reported IC50.
≤ 100 nM
